Target: T1, human SLC34A2 (human, UniProt O95436 1-690)
T1 construct: whole, on cells; also called human solute carrier 34 A2; NaPi2b
T1 sequence (looked up): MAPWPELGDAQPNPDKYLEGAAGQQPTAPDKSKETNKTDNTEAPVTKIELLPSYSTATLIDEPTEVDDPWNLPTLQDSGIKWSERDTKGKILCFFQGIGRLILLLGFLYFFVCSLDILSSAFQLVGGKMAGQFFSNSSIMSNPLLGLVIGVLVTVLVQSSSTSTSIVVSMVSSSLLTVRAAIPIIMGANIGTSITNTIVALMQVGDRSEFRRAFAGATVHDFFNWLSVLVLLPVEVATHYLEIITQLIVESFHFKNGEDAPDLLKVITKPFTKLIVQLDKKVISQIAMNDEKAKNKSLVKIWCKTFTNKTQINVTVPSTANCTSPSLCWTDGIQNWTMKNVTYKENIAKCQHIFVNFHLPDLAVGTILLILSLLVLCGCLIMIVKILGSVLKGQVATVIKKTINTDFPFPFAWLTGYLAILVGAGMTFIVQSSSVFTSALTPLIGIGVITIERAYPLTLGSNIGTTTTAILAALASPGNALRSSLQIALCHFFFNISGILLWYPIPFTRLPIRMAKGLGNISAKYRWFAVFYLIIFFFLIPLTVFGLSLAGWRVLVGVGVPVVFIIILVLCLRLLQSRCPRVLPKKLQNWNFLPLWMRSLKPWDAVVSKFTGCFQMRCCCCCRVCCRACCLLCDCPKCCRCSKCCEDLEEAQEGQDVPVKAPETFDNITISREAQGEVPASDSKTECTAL
Experiment: FACS, OVCAR3 cells
The entries below are paired with their reported Top (MFI).
Number only, in MFI; omit the unit.

BINDER	Top (MFI)
xi67C9G11 hIgG1 (antibody, V domains shown, chimeric, hIgG1) VH: DVKLVESGGGLVKLGGSLKLSCAASGFTFSSYFMSWIRQTPEKRVDLVAVINSNGGSTYSPDTVKGRFTISRDNAKNTLYLQMTSLKSEDTALYYCARHFYSYDGAWFPYWGQGTLVTVSA VL: DIVMTQSHKFMSTLVGDRVSITCKASQDVSTSVAWYQQKPGQSPKLLIYWASTRHTGVPDRFTGSGSGTDFTLTISSVQAEDLALYYCQQHHSTPITFGVGTKLELK	41000
xi11F6H8 hIgG1 (antibody, V domains shown, chimeric, hIgG1) VH: EVQLQQSGPELVKPGASVKISCKTSGFTFTEYTMHWVKQSHGKSLEWIGGINPNNGISSYNQNFKGKATLTVDKSSSTAYMELRSLTSEDSTVYYCARCRYYDTSYYDMDYWGQGTSVTVSS VL: DIQMTQTTSSLSASLGDRVTISCRASQDIRNFLNWYQQKPDGTVKLLIYYTSRLHSGVPSRFSGSGSGTDYSLTISNLEEEDIATYFCQQSNTLPWTFGGGTKLEIK	41300

Now let's try a different one.
Entry under review: xi69B11D8 hIgG1 (antibody, V domains shown, chimeric, hIgG1) VH: EVQLQQSGPELVKPGAAVKISCKTSGYTFTDYTMHWVRQSHGKSLEWIGGIHPNNGGTGYNQKLRGKATLTVDKSSSTAYMELRSLTSDDSAVYYCARGRESDGWFTYWGQGTLVTFSA VL: DVHMTQTTSSLSASLGDRVTITCSASQGIGNSLNWYQQQPDGTVKLLIYYTSRLHSGVPSRFSGSGSGTDYSLTISNLEPEDLATYYCQQYSRFPPTFGGGTKLEIK . Reported Top (MFI)? 27700
